Source of measurements: paper PMC10247784

Listing of entries alongside the reported RLU.
measurement target: mouse Tas2r144 (Mus musculus)
Construct: expressed in transfected cells; host or cells: HEK293T-Gα16gust44
Sequence (Q7TQB8 whole entry): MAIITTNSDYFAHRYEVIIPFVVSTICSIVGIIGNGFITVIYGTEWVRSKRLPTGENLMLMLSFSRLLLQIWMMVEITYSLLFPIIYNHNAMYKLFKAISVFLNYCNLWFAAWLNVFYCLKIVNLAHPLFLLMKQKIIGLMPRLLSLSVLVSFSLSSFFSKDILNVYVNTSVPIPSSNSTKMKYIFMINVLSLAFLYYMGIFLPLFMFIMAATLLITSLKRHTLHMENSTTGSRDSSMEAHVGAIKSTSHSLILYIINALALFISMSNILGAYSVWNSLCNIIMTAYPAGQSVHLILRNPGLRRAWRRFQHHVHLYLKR
experiment: Calcium imaging assay (FLIPR), HEK293T-Gα16gust44 cells transfected with mouse Tas2r144
Type: cell-based
measurement conditions: Time 134.781 s

{"test smiles": "C[C@H](CCC(=O)NCCS(=O)(=O)O)[C@H]1CC[C@H]2[C@@H]3CC[C@@H]4C[C@H](O)CC[C@]4(C)[C@H]3CC[C@]12C", "RLU [RLU]": 312.409}
{"test smiles": "C[C@H](CCC(=O)O)[C@H]1CC[C@H]2[C@@H]3[C@H](O)C[C@@H]4C[C@H](O)CC[C@]4(C)[C@H]3C[C@H](O)[C@]12C", "RLU [RLU]": 326.444}
{"test smiles": "C[C@H](CCC(=O)NCCS(=O)(=O)O)[C@H]1CC[C@H]2[C@@H]3[C@H](O)C[C@@H]4C[C@H](O)CC[C@]4(C)[C@H]3C[C@H](O)[C@]12C", "RLU [RLU]": 393.586}
{"test smiles": "C[C@H](CCC(=O)NCC(=O)O)[C@H]1CC[C@H]2[C@@H]3[C@H](O)C[C@@H]4C[C@H](O)CC[C@]4(C)[C@H]3C[C@H](O)[C@]12C", "RLU [RLU]": 241.405}
